Endpoint summary: IC50, system: Tyrosine-protein kinase JAK3 (Homo sapiens, UniProt P52333), multiple sources combined.

{"compound": "Cc1cnc(Nc2cc(N3C[C@@H]4C[C@H]3CN4C)cnc2F)nc1N[C@H](C)[C@H](C)CO", "target-desc": "Tyrosine-protein kinase JAK3 (Homo sapiens, UniProt P52333)", "value-modifier": ">", "IC50 / nM": 30000}
{"compound": "C=CC(=O)N1CCC[C@@H](n2nc(-c3ccc(Oc4ccccc4)cc3C)c3c(N)ncnc32)C1", "target-desc": "Tyrosine-protein kinase JAK3 (Homo sapiens, UniProt P52333)", "value-modifier": "=", "IC50 / nM": 874}
{"compound": "COC(=O)c1ccc2c(c1)/C(=C1/Nc3ccccc3/C1=N\\OCCN1CCNCC1)C(=O)N2.Cl.Cl", "target-desc": "Tyrosine-protein kinase JAK3 (Homo sapiens, UniProt P52333)", "value-modifier": "=", "IC50 / nM": 690}
{"compound": "C=CC(=O)N1CCCC(n2nc(-c3c(C)cc(Oc4ccccc4)cc3C)c3c(N)ncnc32)C1 (stereo in doubt)", "target-desc": "Tyrosine-protein kinase JAK3 (Homo sapiens, UniProt P52333)", "value-modifier": ">", "IC50 / nM": 10000}
{"compound": "COCC(C(=O)Nc1cccc2c(-c3nc(Nc4cccc(S(C)(=O)=O)c4F)ncc3F)c[nH]c12)N1CCN(C)CC1 (stereo not drawn)", "target-desc": "Tyrosine-protein kinase JAK3 (Homo sapiens, UniProt P52333)", "value-modifier": ">", "IC50 / nM": 30000}
{"compound": "C=CC(=O)Nc1cccc(Oc2nc(Nc3ccc(N4CCN(C(C)C)CC4)cc3)nc3ccoc23)c1", "target-desc": "Tyrosine-protein kinase JAK3 (Homo sapiens, UniProt P52333)", "value-modifier": "=", "IC50 / nM": 39}
